target: 3-phosphoinositide-dependent protein kinase 1 (Homo sapiens) (UniProt O15530)
metric: IC50

Ask: Entry `CN(C)Cc1ccc(-c2cnn3c(-c4cccc(NC(=O)c5cccc(C(F)(F)F)c5)c4)ccnc23)cc1` : reported IC50 = ?
Reply: > 2 µM
